Target: T1, extracellular domain of cyno ILT3 (cynoILT3-ECD) (cynomolgus monkey)
T1 chain: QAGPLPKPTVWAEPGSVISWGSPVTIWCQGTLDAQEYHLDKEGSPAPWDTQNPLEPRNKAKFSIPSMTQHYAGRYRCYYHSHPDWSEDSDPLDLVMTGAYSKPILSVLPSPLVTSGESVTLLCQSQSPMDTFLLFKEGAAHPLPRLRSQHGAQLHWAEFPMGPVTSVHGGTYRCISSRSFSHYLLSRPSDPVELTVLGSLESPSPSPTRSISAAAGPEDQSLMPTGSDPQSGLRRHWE
Test: SPR (Biacore), antibody captured via anti-Fc on CM5 chip, soluble ILT3-ECD injected
Measured quantity: pKd
Lab note — pKd values are minus log10 of concentrations in M.

Return reported pKd. Input binder: 48A6 chimera (antibody, V domains shown, also called parental chimeric 48A6) VH: EVQLVESGGDLMKPGGSLKLSCAASGFTFSSYGMSWVRQTPDKRLEWVATISSGGTYTFYPDSVKGRFTISRDNAKNTLYLQMSSLKSEDTAMYYCARRGWLLHYYAMDYWGQGTSVTVSS VL: NIVLTQSPASLAVSLGQRATISCRPSESVDSFGNSFMHWFQQKPGQPPKLLIYLSSKLESGVPARFSGSGSRTDFTLTIDPVEADDAATYYCQQHNEDPFTFGSGTKLEIK 7.27
